Data provenance: patent US20230110188A1

system tested: T1, Human MuSK (R&D Systems, cat. 10189-MK, histidine tag) (human, UniProt O15146 24-495)
T1 construct: Bought protein; also called human monomeric MuSK-6xhis; not shown: histidine tag (6xhis)
T1 sequence: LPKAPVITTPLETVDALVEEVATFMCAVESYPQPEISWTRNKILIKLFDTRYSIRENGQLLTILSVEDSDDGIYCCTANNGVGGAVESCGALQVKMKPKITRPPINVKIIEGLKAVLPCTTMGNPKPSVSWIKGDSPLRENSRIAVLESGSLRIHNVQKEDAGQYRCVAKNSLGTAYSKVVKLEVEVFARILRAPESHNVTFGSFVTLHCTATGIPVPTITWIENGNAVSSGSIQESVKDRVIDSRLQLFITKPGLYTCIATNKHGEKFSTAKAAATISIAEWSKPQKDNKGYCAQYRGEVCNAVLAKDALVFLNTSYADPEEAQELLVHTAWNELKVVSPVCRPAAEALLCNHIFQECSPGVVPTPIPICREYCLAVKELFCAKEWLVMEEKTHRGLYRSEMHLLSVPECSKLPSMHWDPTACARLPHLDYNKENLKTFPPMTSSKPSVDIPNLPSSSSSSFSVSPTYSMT
experiment notes: SPR (Biacore), antibody captured on anti-hFc chip, MuSK injected 0.3125-10 nM
parameter: pKd
# reply with the number alone; pKd is -log10 of concentration in mol/L

Record 4D3 (antibody, human IgG1, kappa, L234A L235A, V domains shown) VH: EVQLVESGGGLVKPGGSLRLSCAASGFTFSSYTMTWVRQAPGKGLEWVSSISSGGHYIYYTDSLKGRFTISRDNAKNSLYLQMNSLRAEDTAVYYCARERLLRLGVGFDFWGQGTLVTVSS VL: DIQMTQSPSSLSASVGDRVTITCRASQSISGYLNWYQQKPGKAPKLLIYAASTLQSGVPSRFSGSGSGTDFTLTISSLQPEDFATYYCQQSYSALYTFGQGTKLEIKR . Reported pKd: 9.59

Record 3D10a (antibody, human IgG1, kappa, L234A L235A, V domains shown) VH: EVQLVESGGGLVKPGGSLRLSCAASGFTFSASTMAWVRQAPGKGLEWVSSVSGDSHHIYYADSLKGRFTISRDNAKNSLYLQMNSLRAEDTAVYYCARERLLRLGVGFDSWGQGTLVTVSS VL: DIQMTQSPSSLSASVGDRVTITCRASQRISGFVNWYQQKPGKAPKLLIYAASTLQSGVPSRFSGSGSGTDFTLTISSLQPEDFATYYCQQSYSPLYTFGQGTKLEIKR . Reported pKd: 9.80

Record 3F6c (antibody, human IgG1, kappa, L234A L235A, V domains shown) VH: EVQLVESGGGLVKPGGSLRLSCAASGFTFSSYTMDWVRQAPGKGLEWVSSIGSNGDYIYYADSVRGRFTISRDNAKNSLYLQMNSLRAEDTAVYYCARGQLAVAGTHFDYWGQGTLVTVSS VL: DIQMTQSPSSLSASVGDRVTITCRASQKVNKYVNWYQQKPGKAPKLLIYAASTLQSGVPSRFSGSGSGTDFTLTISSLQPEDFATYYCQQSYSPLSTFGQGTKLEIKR . Reported pKd: 10.30

Record 3D9b (antibody, human IgG1, kappa, L234A L235A, V domains shown) VH: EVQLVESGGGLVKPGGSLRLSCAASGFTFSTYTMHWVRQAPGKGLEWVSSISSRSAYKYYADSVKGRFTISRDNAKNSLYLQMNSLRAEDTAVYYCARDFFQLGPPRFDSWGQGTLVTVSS VL: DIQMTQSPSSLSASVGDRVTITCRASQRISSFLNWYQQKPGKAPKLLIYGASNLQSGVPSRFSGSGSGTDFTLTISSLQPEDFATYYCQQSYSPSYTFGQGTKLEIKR . Reported pKd: 9.77
